FYI, the data here is from paper PMC5540273.

In this section, each of the compounds is paired with its reported %Inh.
System: SRPK1;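 note: KINOMEscan kinase panel screen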
CONDITION CONTEXT: concentration: 1 μM, replicates: in singlicate; n = 1
RECORDED METRIC: %Inh

INSERT INTO results (compound, recorded_metric, recorded_value) VALUES
  ('NS(=O)(=O)c1cccc(-c2ccc3nccc(-c4cccc(S(N)(=O)=O)c4)c3c2)c1', '%Inh', '0%'),
  ('Fc1ccc(-c2ncn(CCCN3CCOCC3)c2-c2ccccn2)cc1', '%Inh', '0%'),
  ('Cl.Oc1cccc(Nc2ccnc3cc(-c4ccncc4)ccc23)c1', '%Inh', '46%'),
  ('Cc1cccc(-c2nc(Nc3ccc4ncsc4c3)c3ccccc3n2)n1', '%Inh', '0%'),
  ('Cc1nnc(-c2ccc(C)c(-c3ccc(C(=O)Nc4ccc(NS(C)(=O)=O)cc4)cc3)c2)o1', '%Inh', '23%'),
  ('Cc1ccc(NC(=O)c2ccnc(N3CCN(C)CC3)c2)cc1-c1ccc(C(=O)NCC2CC2)cc1', '%Inh', '0%'),
  ('COc1cc2ncn(-c3cc(OCc4sccc4Cl)c(C(N)=O)s3)c2cc1OC', '%Inh', '88%'),
  ('Nc1nc(-c2ccc3c(N)n[nH]c3c2)cc(N2CCCC2)n1', '%Inh', '4%'),
  ('Cc1ccc(C(=O)NCC(N)=O)cc1-n1c(C)cc(OCc2ccc(F)cc2F)c(Br)c1=O', '%Inh', '0%'),
  ('N#Cc1ccc(-c2cc(-c3c[nH]nc3-c3ccccn3)ccn2)cc1', '%Inh', '0%'),
  ('COc1ccc(Nc2ncc(C#N)c(Nc3ccccc3C(N)=O)n2)cc1N1CCN(C)CC1.Cl', '%Inh', '99.9%'),
  ('COc1ccc(Nc2nccc(N3CCC(NC(=O)Nc4cccc(C(C)=O)c4)C3)n2)cc1 (stereo not drawn)', '%Inh', '6%'),
  ('Cc1cccc(-c2nc(-c3ccc(S(C)(=O)=O)cc3)sc2-c2ccncc2)c1', '%Inh', '15%'),
  ('O=C(Nc1cccc(-c2nn3ncccc3c2-c2ccnc(Nc3cccc(C(F)(F)F)c3)n2)c1)c1c(F)cccc1F', '%Inh', '0%'),
  ('CN1c2ccc(CNc3ccc(F)cc3)cc2-c2c(cnn2C)S1(=O)=O', '%Inh', '0%'),
  ('CSc1ccc(-c2cc3ncnc(SCC(=O)O)c3s2)cc1', '%Inh', '0%'),
  ('CC(C)(C)n1cnc2c(N)ncnc21', '%Inh', '0%'),
  ('COc1ccc(CNC(=O)NC2CCN(c3ccnc(Nc4ccc(OC)cc4)n3)C2)cc1 (stereo not drawn)', '%Inh', '43%');
